Where these numbers come from: ChEMBL document CHEMBL1156678

- System: Mus musculus
- TEST_DESCRIPTION: Thrombotic toxicity in ICR mouse assessed as tail bleeding time at 1.3 mmol/kg, ip after 60 mins
- Assay type: organism-based
- CONDITION_CONTEXT: in vivo, 1 h
QUANTITY: Activity (s)
Reply with just the number (in s).

Please review the following examples before continuing.
{"SMILES_REPRESENTATION": "CC1(C)N=C(c2ccccc2F)N(O)C1(C)C", "MEASURED_VALUE": 119}
{"SMILES_REPRESENTATION": "CC1(C)N=C(c2ccc(Cl)cc2)N(O)C1(C)C", "MEASURED_VALUE": 119}
{"SMILES_REPRESENTATION": "CC1(C)N=C(c2ccc(Cl)cc2Cl)N(O)C1(C)C", "MEASURED_VALUE": 119}
{"SMILES_REPRESENTATION": "COc1ccc(C2=NC(C)(C)C(C)(C)N2O)cc1", "MEASURED_VALUE": 118}
{"SMILES_REPRESENTATION": "COc1ccc(C2=NC(C)(C)C(C)(C)N2O)c(OC)c1", "MEASURED_VALUE": 117}

// moving on: another record for Activity
Which Activity is listed for "COc1ccc(C2=NC(C)(C)C(C)(C)N2O)cc1OC" ? 118
